B1: LINE1-full (parent)
chain: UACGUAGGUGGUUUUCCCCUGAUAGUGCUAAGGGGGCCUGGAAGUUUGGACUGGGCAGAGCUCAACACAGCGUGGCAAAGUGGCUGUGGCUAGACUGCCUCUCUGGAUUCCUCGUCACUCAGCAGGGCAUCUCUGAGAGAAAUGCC

Variants of: B1
Assay comment: self-cleavage, relative activity (ratio to wild type); higher = more cleavage; in vitro, sequencing; the parent is a self-cleaving ribozyme
Value type: self-cleavage
Answer with a number only.

C61U A64U	0.06
G32A	1.23
U1C A129G	1.38
C61U U100A	0.01
A77C U102A	1.37

For the variant U26G U108C , what self-cleavage is on record?
1.41

# lookup: self-cleavage of U14C G105C
1.84

Requested field: self-cleavage. Item: G44U A69G
0.66

Which value of self-cleavage has been reported for A79C A136G in the records?
1.93

Quick one: self-cleavage of U134C G144A ?
1.18

If you can, please state the reported self-cleavage value of A92G U100A .
0.13

Which self-cleavage is reported for this variant? U20A C95U
0.13

Give its self-cleavage value. Item: U39C C145U
0.99

Which self-cleavage is listed for U73C C145A ?
1.44

Request the reported self-cleavage associated with A22U A50U
0.39

Which self-cleavage is listed for A67U G89A ?
0.03

Item U100C G126C has what recorded self-cleavage?
2.64

Would you mind telling me what self-cleavage value was observed for G89A A107G ?
0.01
